Source listed as patent US10100129B2.

Known % Rmax, binding to hCD16a-V158 of a selection of molecules
biological target: CD16a-V158 (FcgRIIIa-V158) (Homo sapiens, UniProt P08637, F176V); assay: SPR binding to FcgR-his: CD16a-V158; settings: 1 μM antibody, anti-his Fab captured FcgR-his
Sequence (P08637 17-208 F176V limits assumed): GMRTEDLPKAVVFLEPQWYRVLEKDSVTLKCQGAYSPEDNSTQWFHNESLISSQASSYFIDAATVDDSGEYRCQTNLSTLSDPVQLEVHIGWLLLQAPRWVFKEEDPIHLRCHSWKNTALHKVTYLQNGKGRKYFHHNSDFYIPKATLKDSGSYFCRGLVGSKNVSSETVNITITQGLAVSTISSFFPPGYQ
assay-endpoint: % Rmax, binding to hCD16a-V158 (%)

molecule	assay-endpoint	observed-result
mAb13-IgG2.5 (protein, left off: another chain or arm of the molecule) constant: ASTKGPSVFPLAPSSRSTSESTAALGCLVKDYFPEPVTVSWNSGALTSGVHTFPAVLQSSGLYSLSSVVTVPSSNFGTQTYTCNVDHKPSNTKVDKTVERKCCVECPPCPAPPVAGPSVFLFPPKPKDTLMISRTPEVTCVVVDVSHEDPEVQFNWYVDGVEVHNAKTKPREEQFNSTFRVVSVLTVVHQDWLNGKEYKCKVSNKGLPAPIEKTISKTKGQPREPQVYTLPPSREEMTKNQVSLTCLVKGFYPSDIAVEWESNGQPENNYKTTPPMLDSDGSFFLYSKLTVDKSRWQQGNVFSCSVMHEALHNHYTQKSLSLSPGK	% Rmax, binding to hCD16a-V158	0
mAb5-IgG2.5 (protein, left off: another chain or arm of the molecule) constant: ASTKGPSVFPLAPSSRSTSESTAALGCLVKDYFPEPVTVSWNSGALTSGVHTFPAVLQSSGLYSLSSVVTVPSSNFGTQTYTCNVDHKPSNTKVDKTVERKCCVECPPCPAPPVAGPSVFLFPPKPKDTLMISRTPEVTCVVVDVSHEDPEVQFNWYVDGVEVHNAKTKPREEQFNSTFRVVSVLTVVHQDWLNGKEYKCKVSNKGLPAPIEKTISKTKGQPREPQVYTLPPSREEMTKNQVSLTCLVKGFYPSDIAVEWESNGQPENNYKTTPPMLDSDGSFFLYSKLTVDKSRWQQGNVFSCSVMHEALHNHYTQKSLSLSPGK	% Rmax, binding to hCD16a-V158	4
mAb10-IgG2.3G1-AY-V27 (protein, left off: another chain or arm of the molecule) constant: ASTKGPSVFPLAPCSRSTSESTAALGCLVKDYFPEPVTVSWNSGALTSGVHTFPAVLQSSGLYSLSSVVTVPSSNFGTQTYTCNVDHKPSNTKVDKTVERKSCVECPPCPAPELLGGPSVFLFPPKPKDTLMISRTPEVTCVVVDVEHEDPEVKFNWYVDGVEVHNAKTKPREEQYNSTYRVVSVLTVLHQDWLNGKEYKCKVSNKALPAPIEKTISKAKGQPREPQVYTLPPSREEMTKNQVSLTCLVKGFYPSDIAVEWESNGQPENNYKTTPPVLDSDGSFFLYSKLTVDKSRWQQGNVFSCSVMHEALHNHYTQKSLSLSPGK	% Rmax, binding to hCD16a-V158	12
mAb8-IgG2.5G1-AY-V27 (protein, left off: another chain or arm of the molecule) constant: ASTKGPSVFPLAPSSRSTSESTAALGCLVKDYFPEPVTVSWNSGALTSGVHTFPAVLQSSGLYSLSSVVTVPSSNFGTQTYTCNVDHKPSNTKVDKTVERKCCVECPPCPAPELLGGPSVFLFPPKPKDTLMISRTPEVTCVVVDVEHEDPEVKFNWYVDGVEVHNAKTKPREEQYNSTYRVVSVLTVLHQDWLNGKEYKCKVSNKALPAPIEKTISKAKGQPREPQVYTLPPSREEMTKNQVSLTCLVKGFYPSDIAVEWESNGQPENNYKTTPPVLDSDGSFFLYSKLTVDKSRWQQGNVFSCSVMHEALHNHYTQKSLSLSPGK	% Rmax, binding to hCD16a-V158	33
